test-name: yeast display, Sf9 membrane polyspecificity reagent, FACS + sequencing; frameworks hold sequencing errors

# seq, polyreactivity (PSR sort gate)
data = [
    ("QVQLVESGGGLVQAGGRLRLSCAASGIIFRVYTMGWYRPEPGKERELVATISLGVARTYYADSVKGRFTISRDNAKYTVYLQMNSLKPEDTAVYYCAKRRGGQGNYWGQGTQVTVSS", "high polyreactivity"),
    ("QVQLVESGGGLVQAGGSLRLSCAASGSTLAIYAMGCYRQAPGKERELVASISRVGSTNYADSVKGRFTISRDNAKNTVYLQMNSRIPEDTAVYYCAARRWSYVILRAYYYWGQGTQETVSS", "high polyreactivity"),
    ("QVQLVESGGGLVQAGGSLRLSCAASGSNFVGYVMGRYRQAPGKERELVARIRWGGGRTYYADSVKGRFTISRDNAKNRVYLQMKSLKAEDTAVYYCAAVWRTRWAPGYYWGQGTQVTGSS", "high polyreactivity"),
    ("QVQLVESGGGLVQAGASLRLSCAASGGTFLIYGRGWYRQAPGKERELVAAISRSGGSTYYADSVKGRFTISRDNAKNTVYLQMNSLKPEDTAVYYCAADSGYLSPYDYWGQGTQVTVSS", "low polyreactivity"),
    ("QGHLVESGGGLVHAGGSLRLSCAASGRIFDVNAMGWYRQAPWKERELVAAISSGGNTKYADSVKGRFTISRDNAKNTVYLQMNSLKPEDTAVYYCIADGKAGGDYDYWGQGTQVTVSS", "low polyreactivity"),
    ("QVQLVESGGGLLQAGGSLRLSCAASGRTLVSYAMGWYRQAPGKERELVATISWSGGSTYYADSVKGRFTISRDTAKNTVYLQIYSLKPEDTAGYDCNRSLTGYDELGYPVPYTYDYWGQGTQVTVSS", "low polyreactivity"),
    ("QVQLVESGGGLVQAGGSLRLSCAASGSTFVRYAMGWYRQAPGKERELVAGISSGDRTYYADSVKGRFTISRDNAKNTVYLQMNSLKPEDTAVYYCNARPVYLLEGYYWGQGTQVTVSS", "low polyreactivity"),
    ("QVQLVESGGGLVQAGGSLRLSCAASGSTFGINTMGWYRQAPGKERELVATISQRGTRTYYADSVKGRFTISRDNAKNTVYLQMNSLKPEDTAVYYCNKDVYLYYYTRRSGRLDYWGQGTQVTVSS", "high polyreactivity"),
    ("QVQLVESGGGLVQAGGSLRLSCAASGSNFTPNTMGWYRQAPAKERELVAGISSGDSTDYADSVKVRFTISRDNAKNTVYLQLNSLNPEDPAVYYCAAPWYGYYSRYDFYYWGQGTQVTVSS", "low polyreactivity"),
    ("QVQLVESGGGLVQAGGSLRLSCAASGRTFQGNTMGWYRQAPGKERELVAAITWRGTTTYYADSVKGRFTISRDNAKNTVYVQMNSLKPEDTAVYYCAAGHALHSGDEFGYWGQGTQVTVSS", "low polyreactivity"),
    ("QVQLVESGGGLVQAGGILRFSCAASGRTFKYYAMGWYRQAPGKERELVAAISYNGGSTFYADSVKGRFTISRDNAKNTVYLQLNSLKPEDTAVYYCAAGPRGTGKYYWGQGTQVTVSS", "high polyreactivity"),
]

====

test-name: yeast display, Sf9 membrane polyspecificity reagent, FACS + sequencing; frameworks hold sequencing errors

# seq, polyreactivity (PSR sort gate)
records = [
    ("QVQLGDSGGGLVQAGGSLRLSCAASGSIFSKYAMGWSRKAPGKERELVATISSSVGSTYYADSVKGRFTISRDNAKNSVYLQMNSLKPEDTAVYYCAARPDYEYGTHYRGGYWGQGTQVTVSS", "low polyreactivity"),
    ("QVQLVESGGGLVQAGGSLRLSCAASGFTFSTNAMGWYRQAPGKERELVAAISKSGVSTYYADSVKGRFTISRDNAKNTVYLQMNSLKTEDTAVYYCAADPKIALYKVWRYDYWGQGTQVTVSS", "high polyreactivity"),
    ("QVQLVESGGGLVQAGGSLRLSCADSGSIFRRNAMGWYRQAPGKERELVAGIRGSGGSTYYADSVKGRFTISRDNAKNTVYLQMNSLKPEDTAVYYCAARRSYYHGSYDYWGQGTQVTVSS", "high polyreactivity"),
    ("QVQLVESGGGLVQAGGSLRLSCAASGSTFYYYAMGWYRQAPGKERELVASITTGGGSTYYADSVKGRFTISRDNAKNTFYLEMNSLKPEDTAVYYCAAALSYYFWWYDYLGQGTQVTVSS", "low polyreactivity"),
    ("QVQLVESGGGLVRAGGSLRLSCAASGRNKDNVMGWYRQAPGKERELVAAITRSAGRTYYADSVKGRFTISRDNAKNTVYLQMNSLIPEDTAVYYFATADAHYSAAGEDYWGQGTQVTVSS", "low polyreactivity"),
    ("QVQLVESGGGLVQAGGSLRLSCAASGFIFRDNTMGWYRQAPGKEREFVAGITKSGGSTYYADSVKGRFTISRDNAKNTVYLQMNSLKPEDTAVYYCAAYVPYTRYDYWGQGTQVTVSS", "high polyreactivity"),
    ("QVQLVESGGGLVQAGGSLRISCAASGYTFASYTMGWYRQAPGKERELVATISRGGGRTYYADSVKGRFTISRDNAKNTVYLQLNSLKPEDTAVYYCARPSTFFTGYRQAHFDYWGQGTQVTVSS", "high polyreactivity"),
    ("QVQLVESGGGLVQAGGSLRVTCAASGNIFGYYAMGWYRQAPGKERELDAAISSGGTTSYADSVKGRFTISRDNAKNTVYLQLNSLKPEDTAVYYCAARDWYDGFYYWGQGTQVTVSS", "low polyreactivity"),
    ("QVQLVESGGGLVQAGGSLRLSCAASGRTSRNNVMGWYRQAPGKERELVAAITKRTDRTYYADSVKGRFTISRDNAKNTVYLQMNSLKPEDTAVYYCAADLSLSTGGRAFPTYGYWGQGTQVTVSS", "high polyreactivity"),
    ("QVQLVESGGGLVQAGGSLRLSCAASGFTFNSYAMGWYRQAPGKKGSWLAITSDGSTYYADSVKGRFTISRDNAKNTVYLQMNSLKPEDSAVYFCAVRTSWYGAASRYYYWGQGTKVTVSS", "high polyreactivity"),
    ("QVQLVQSGGGLVQAGGSLRLSCAASGRIFNNYAMGWYRQAPRKERELLAAISGSGGSTYYADSVKGRFTISRDNAKNTVYLQMNCMKPEDTAVYYCSTSGPQYYSRNFDYWGQGTQVTVSS", "low polyreactivity"),
]

====

test-name: yeast display, Sf9 membrane polyspecificity reagent, FACS + sequencing; frameworks hold sequencing errors

# seq, polyreactivity (PSR sort gate)
rows = [
    ("QVQLVESGGGLVQAVGSLRLSCAASGSTFYPYAMGWYRQSPGKERELVAAISISGGITYYADSVKVRFTISRDNAKNTVYLQMNSLKPEDTAVYYCAAEYLAVSGYWYDYWGQGTQVTVSS", "high polyreactivity"),
    ("QVQLVESGGGLVQAGGSLRLSCAASGSTFQRYAMGWYRQAPGKERELVAAITSGGSTYYADSVKGRFTISRDNAKNTVYLQMISLKPEDTAVYYCNAAWFYRYGYWGQGTQVTVSS", "high polyreactivity"),
    ("QVQLVESGGGLVQAGGSLRLSCAASGRIFYVYTLGWYRQAPGKERELVAAITSGGSTNYADSVKGRFTISRDNAKNTVYLQMNSLKPEDTAVYFCAKKAWVIYNRKFSSGYDYWGQGTQVTVSS", "low polyreactivity"),
    ("QVQLVETGGGLVQAGGSLRLSCAASGFTFAPYVMGWSRQAPGKERELVAAINWSGTRTYYADSVKGRFTFSRDNAKNTVYLQMNSLKPEDTAVYYCAARSVTVSGSLQPKRRYGYWGQGTQVTVSS", "high polyreactivity"),
    ("QVQIVESGGCLVQAGGSLRLSCAASGRIIVRNAMGWYRQARGTERELVADITNGGSTNYADSVKGRFTISRDNAKNTVFLEMNSLKPEDTAVDFCAADTLGVYDGDYWGQGTQVTVSS", "low polyreactivity"),
    ("QVQLVDSGGGLVQAGGSLRLSCAASGSIFGLYAMGWYRQAPGKERELVAAISASGGSTYYADSVKGRFTISRDNAKNTVYLQMNSLKPEDTAVYYCAADLGYPTYDYWGQDTQVTVSS", "low polyreactivity"),
    ("QVQLVESGGGLVQAGGSLRISCAASGRTFWYYAKGWDRQAPGKEREFVAAISWSGGSTYYADSVKGRFTISRDNAKNTVYLQMNSLKPEDTAVSYCAADRYDSSQFYYWGQGTQVTVSS", "low polyreactivity"),
    ("QVQLVESGGGLVQAGGSLRLSCAASGRTFRWNAMGLYRQAPGKERELVADITSGGSTYYADSVKGRFTISSDNAKNTVYLQMNSLKPEDTAVYYCKAYYYYQFPAPASKYDYWGQGTQVTVSS", "high polyreactivity"),
    ("QVQLVESGGGLVQAGGSLRLSCAASGTTFDSNGRGWYREAPGKERELVAAIRSGDSTYYADSVKGRCTISRDNAKNTVYLQMISLKPEDTAVYYCNKDEATFLSKDDYWGQGTQVTVSS", "low polyreactivity"),
    ("QVQLVESGGGLVQAGGSLRLSCAASGYILGGNAMGWYRQAHGKERELDAVIRKSGGSTYADSVKGRFTISRDNAKNSVYLQMNSLKPEDTAVYYCNADTLAGVYFYQSDYWGQGTQVTVSS", "low polyreactivity"),
    ("QVQLVDSGGALVQAGGSLRLSCAASGRTFRPNAMGWYRQAPGKERELVAVISWRGGRTYYADYVKGRFTISRDIAKNTVYLQMNSLKPEDTAVYYCGARVYLSGYGYNYWGQGTHVTVSS", "high polyreactivity"),
]
